reported-metric: melting point

Example cases with answers are listed next.
CC(C)(CNc1ccc(C(=O)CCCC(=O)O)cc1)[N+](=O)[O-]
160 to 161 °C
O=C(NC1CCN(CCC2CCOc3ccccc32)CC1)C1CCc2ccccc2C1 (centres undefined)
130 to 132 °C
Cn1c(-c2cc(C(C)(C)C)c(O)c(C(C)(C)C)c2)n[nH]c1=O
308 to 312 °C
COc1nc(Cc2nn(C)c(C)c2NS(=O)(=O)C(F)(F)F)nc(OC)n1
145 °C
O=C(N[C@H](Cc1cccc(OC(F)(F)C(F)F)c1)[C@@H](O)c1csc(-c2ccccc2)n1)c1ccc(F)c2ccccc12 (racemic)
148 to 150 °C

query: Answer with the recorded melting point of O=C(O)c1c(-c2cccc3ccccc23)c2ccccc2n1Cc1cc2c(cc1Cl)OCO2 only.
result: 241 to 242 °C

query: Supply reported melting point belonging to this compound: Cc1ccc(C(=O)Nc2ccc(CN3CCN(C)CC3)c(C(F)(F)F)c2)cc1C#Cc1ccc(NC2CC2)nn1
result: 68 to 69 °C

query: Give a short answer stating reported melting point for CC(=O)[C@H]1CC[C@H](c2ccc(Cl)cc2)CC1 .
result: 74.6 °C

query: Return reported melting point. Input compound: CCCS(=O)c1ncn(C(=O)N(CC)CC)n1 (centres undefined)
result: 50.5 to 51.5 °C

query: Give reported melting point value for CS(=O)(=O)c1cc(C(=O)O)ccc1Oc1ccc(C(=S)Cc2ccc3ccccc3n2)cc1
result: 210 to 214 °C

query: // Input: CC(C)n1c(=O)n(C)c(=O)c2cn(C3Cc4ccccc4C3)cc21 . Output its melting point only.
result: 158 to 160 °C

###

reported-metric: melting point

Look over these answered cases.
Nc1cc(=O)nc(Nc2ccccc2)n1-c1ccc(Cl)cc1
216 to 222 °C
Cc1cc(Oc2csc(C(F)(F)F)c2)nc(-c2ccc(C(F)(F)F)cc2)n1
83.5 to 85 °C
O=C(O)CC(C(=O)O)C(=O)O
157 to 159 °C
COc1ccc(S(=O)(=O)Nc2c(Cl)cccc2Cl)c2c1[nH]c1ccccc12
201 to 205 °C

In the following, a different compound is considered.
query: Tell me its melting point given O=C(CCC1CCN(Cc2cccc(F)c2)CC1)c1cc2c3c(c1)CCN3C(=O)CC2 as the entry.
result: 111 to 112 °C

###

reported-metric: melting point

Nc1nc2ccccc2n1-c1cccc(-c2nccs2)c1
224 to 226 °C

query: Identify melting point associated with the molecule COc1ccc(CN2CCN(CCC(c3ccccc3)c3ccccc3)CC2)cc1OC
result: 98 to 104 °C

query: Check the records and state melting point for CCOc1nn(-c2c(Cl)cc(C(F)(F)F)cc2Cl)c(N)c1C(=O)c1cccc(C(F)(F)F)c1
result: 77 to 78 °C

query: Please give measured melting point of the following entry: Nc1ncc(I)c(N)n1
result: 212 to 214 °C

query: Fill in reported melting point for this entry: O=C(c1ccccc1)n1c(=O)c(C(F)(F)F)cn(C2CC(O)C(CO)O2)c1=O (stereo not given)
result: 144 to 146 °C

query: Quickly give me recorded melting point for Cc1cccc(COc2cccc(OCc3ccc(-c4ccccc4)cn3)c2)c1C(=O)O
result: 80 to 83 °C

query: Output measured melting point for this item: Cc1ccc(S(=O)(=O)NC(CN)C(=O)O)cc1 (stereo not given)
result: 225 to 226 °C

query: Given the molecule COc1cccc(-c2cccc(Oc3nc(OC)cc(OC)n3)c2C(=O)O)n1 , write its reported melting point.
result: 158 to 160 °C

query: For the molecule c1ccc(C2CSC(c3ccccc3)N2)cc1 (mixture of isomers) , give its measured melting point value.
result: 120 °C

query: Please give measured melting point of the following entry: Cc1cc(OC(=O)C(C)(C)C)c(C)c(C)c1OCc1ccccc1
result: 50 to 53 °C

Source listed as a melting point compilation (Tetko et al.; mined from patent text by program, amines drawn as free bases though some values may be those of a salt).
